Overview of reported pIC50 across a group of compounds:
Target: p45MEK (GST-MEK) (Homo sapiens)
Sequence (Q02750 whole entry): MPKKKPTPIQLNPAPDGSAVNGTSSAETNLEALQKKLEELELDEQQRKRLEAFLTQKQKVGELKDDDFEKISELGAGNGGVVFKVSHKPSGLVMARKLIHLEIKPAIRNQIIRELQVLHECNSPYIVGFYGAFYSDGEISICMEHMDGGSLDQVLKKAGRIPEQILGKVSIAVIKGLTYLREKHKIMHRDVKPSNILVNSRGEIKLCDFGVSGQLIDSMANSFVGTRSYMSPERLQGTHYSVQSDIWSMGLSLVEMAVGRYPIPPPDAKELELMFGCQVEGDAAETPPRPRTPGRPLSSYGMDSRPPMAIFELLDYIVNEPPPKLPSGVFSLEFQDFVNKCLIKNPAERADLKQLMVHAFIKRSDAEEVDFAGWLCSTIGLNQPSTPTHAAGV
pIC50: −log10 of the molar value.
readout: pIC50

1) Cc1cc(Br)ccc1Nc1c(C(=O)NOCC#Cc2ccccc2)ccc(F)c1F [Example 33] ... 6.43
2) CC=CCONC(=O)c1ccc(F)c(F)c1Nc1ccc(Br)cc1C [Example 70] ... 6.65
3) Cc1cc(I)ccc1Nc1c(C(=O)NOCC2CCC2)cc(Br)c(F)c1F [Example 102] ... 8.40
4) Cc1cc(I)ccc1Nc1cc(F)ccc1C(=O)NOCc1ccccc1 [Example 12] ... 6.08
5) C#CCONC(=O)c1ccc(F)cc1Nc1ccc(I)cc1C [Example 25] ... 6.99
6) Cc1cc(I)ccc1Nc1c(C(=O)NOCC(C)N(C)C)cc(Br)c(F)c1F (centres unmarked) [Example 92] ... 7.48
7) Cc1cc(I)ccc1Nc1c(C(=O)NOCC2CCCC2)cc(Br)c(F)c1F [Example 101] ... 8.10
8) Cc1cc(I)ccc1Nc1c(C(=O)NO)cc(Br)c(F)c1F [Example 2] ... 8.52
9) O=C(NOC1CCCCO1)c1cc(Br)c(F)c(F)c1Nc1ccc(I)cc1Cl (centres unmarked) [Example 94] ... 7.42
10) Cc1cc(I)ccc1Nc1c(C(=O)NOCC#Cc2ccccc2)ccc(F)c1F [Example 32] ... 7.77
11) Cc1ccccc1Nc1cc(F)ccc1C(=O)NO [Example 9] ... 6.39
12) CCONC(=O)c1ccc(F)c(F)c1Nc1ccc(Br)cc1C [Example 41] ... 6.63
13) Cc1cc(I)ccc1Nc1cc(F)ccc1C(=O)NOCc1ccoc1 [Example 20] ... 7.38
14) CONC(=O)c1cc(Cl)ccc1Nc1ccc(I)cc1C [Example 7] ... 6.66
15) Cc1cc(I)ccc1Nc1ccc(Cl)cc1C(=O)NOC1CCCCO1 (centres unmarked) [Example 6] ... 6.46
16) CC=CCONC(=O)c1ccc(F)cc1Nc1ccc(I)cc1C [Example 68] ... 6.92
17) Cc1cc(I)ccc1Nc1c(C(=O)NOC(C)C)cc(Br)c(F)c1F [Example 49] ... 7.07
18) Cc1cc(I)ccc1Nc1c(C(=O)NOC2CCCCO2)ccc(F)c1F (centres unmarked) [Example 83] ... 7.51
19) Cc1cc(I)ccc1Nc1cc(F)ccc1C(=O)N(O)C(C)C [Example 78] ... 7.10

###

Overview of reported pIC50 across a group of compounds:
Target: UniProtKB Q02750
pIC50: −log10 of the molar value.
readout: pIC50

1) CC=CCONC(=O)c1cc(Br)c(F)c(F)c1Nc1ccc(I)cc1C ... 7.68
2) Cc1cc(Br)ccc1Nc1c(C(=O)NOCC2CC2)ccc(F)c1F ... 6.74
3) C#CC(C)ONC(=O)c1ccc(F)c(F)c1Nc1ccc(I)cc1C (centres unmarked) ... 7.59
4) Cc1cc(I)ccc1Nc1cc(F)ccc1C(=O)NOCCOc1ccccc1 ... 6.59
5) Cc1cc(I)ccc1Nc1c(C(=O)NOCC2CC2)cc(F)c(F)c1F ... 8.10
